# target system: Nucleotide-binding oligomerization domain-containing protein 1 (Homo sapiens) (UniProt Q9Y239)
# Sequence (whole entry): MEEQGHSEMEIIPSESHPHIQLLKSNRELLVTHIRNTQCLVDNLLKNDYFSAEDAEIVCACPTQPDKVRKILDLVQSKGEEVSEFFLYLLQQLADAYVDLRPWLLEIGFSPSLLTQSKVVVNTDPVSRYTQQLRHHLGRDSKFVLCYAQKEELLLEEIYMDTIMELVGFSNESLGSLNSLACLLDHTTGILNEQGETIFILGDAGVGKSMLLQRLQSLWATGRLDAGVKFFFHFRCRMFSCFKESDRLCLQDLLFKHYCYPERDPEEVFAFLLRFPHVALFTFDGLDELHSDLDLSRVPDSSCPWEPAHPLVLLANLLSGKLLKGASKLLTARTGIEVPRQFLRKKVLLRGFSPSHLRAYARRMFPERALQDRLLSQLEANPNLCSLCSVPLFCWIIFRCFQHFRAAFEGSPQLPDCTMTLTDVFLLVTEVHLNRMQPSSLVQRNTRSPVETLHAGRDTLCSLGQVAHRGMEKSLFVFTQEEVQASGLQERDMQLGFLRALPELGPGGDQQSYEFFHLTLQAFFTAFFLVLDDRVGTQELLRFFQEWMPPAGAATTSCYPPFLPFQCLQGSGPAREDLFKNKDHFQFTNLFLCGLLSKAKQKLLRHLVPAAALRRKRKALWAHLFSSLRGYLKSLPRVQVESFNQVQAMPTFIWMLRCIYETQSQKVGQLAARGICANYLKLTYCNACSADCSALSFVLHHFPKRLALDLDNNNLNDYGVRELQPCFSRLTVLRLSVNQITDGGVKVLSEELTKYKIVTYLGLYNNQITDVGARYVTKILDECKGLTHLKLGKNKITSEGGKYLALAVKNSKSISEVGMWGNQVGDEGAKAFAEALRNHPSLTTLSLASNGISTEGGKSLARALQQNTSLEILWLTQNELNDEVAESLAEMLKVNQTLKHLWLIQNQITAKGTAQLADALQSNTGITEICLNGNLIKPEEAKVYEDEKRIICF
# test details: Antagonist activity at human NOD1 expressed in HEK-Blue cells assessed as inhibition of C12-iE-DAP-stimulated cell activation at 10 uM preincubated for 3 hrs followed by C12-iE-DAP addition measured after 20 hrs by SEAP reporter gene assay
# Type: cell-based
Assignment: determine reported inhibition for the given compounds.
Only the number, expressed in %, is required.

Query string: # query: inhibition of entry COC(=O)CC[C@H]1NC(=O)c2cc(Oc3ccc(Cl)c(N(C)C)c3)c(NC(=O)COCc3ccc(Cl)cc3)cc2NC1=O
Result string: 55.1

Query string: # query: inhibition of entry CCCCN(CCCC)C(=O)CC[C@H]1NC(=O)c2cc(Oc3cccc(N(C)C)c3)c(NC(=O)COCc3ccccc3)cc2NC1=O
Result string: 82

Query string: # query: inhibition of entry CCCCCCCCCCCCNCC(=O)Nc1cc2c(cc1Oc1cccc(N(C)C)c1)C(=O)N[C@H](CCC(=O)OC)C(=O)N2
Result string: 7.37

Query string: # query: inhibition of entry COC(=O)CC[C@H]1NC(=O)c2cc(Oc3ccc(Cl)c(N(C)C)c3)c(NC(=O)COCc3ccccc3)cc2NC1=O
Result string: 73

Query string: # query: inhibition of entry CCCCCCCNC(=O)CC[C@H]1NC(=O)c2cc(Cl)ccc2NC1=O
Result string: -7.88

Query string: # query: inhibition of entry COC(=O)CC[C@H]1NC(=O)c2cc(Cl)ccc2NC1=O
Result string: 38

Query string: # query: inhibition of entry COC(=O)CC[C@H]1NC(=O)c2cc(Oc3cc(N(C)C)c(Cl)c(Cl)c3Cl)c(NC(=O)COCc3ccccc3)cc2NC1=O
Result string: 11.1

Query string: # query: inhibition of entry COC(=O)CC[C@H]1NC(=O)c2cc(Oc3cccc(N(C)C)c3)c(NC(=O)COCc3cccc(Br)c3)cc2NC1=O
Result string: 89.6
